Each recorded value in this set is attributed to patent US20240067944A1.

biological target: human plasma-derived FX (Haematologic Technologies Inc, USA) (human, UniProt P00742 41-179; P00742 183-488); assay: cell-based or functional assay
Sequence (P00742 41-179, chain 1 of 2): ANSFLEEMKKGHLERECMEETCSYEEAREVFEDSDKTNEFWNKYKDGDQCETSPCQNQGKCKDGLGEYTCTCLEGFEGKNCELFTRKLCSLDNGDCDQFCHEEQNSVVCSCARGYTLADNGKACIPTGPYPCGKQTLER
Sequence (P00742 183-488, chain 2 of 2): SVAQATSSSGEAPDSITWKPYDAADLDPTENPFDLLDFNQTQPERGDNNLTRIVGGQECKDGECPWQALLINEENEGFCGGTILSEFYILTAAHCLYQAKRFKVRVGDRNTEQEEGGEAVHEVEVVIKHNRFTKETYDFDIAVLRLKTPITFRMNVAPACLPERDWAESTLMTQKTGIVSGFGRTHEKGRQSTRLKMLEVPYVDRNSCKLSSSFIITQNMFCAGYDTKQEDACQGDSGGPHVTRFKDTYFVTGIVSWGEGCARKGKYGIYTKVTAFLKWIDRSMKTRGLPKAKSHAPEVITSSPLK
Overview of recorded KM (nM) of FX activation by 0.1 nM FIXa on phospholipid vesicles with 5 nM compound for various binders
Give the quantity in nM, number only.

Example entries and their recorded answers appear below.
>  <BINDER>
Cmpd #15 (anti-FX/anti-FIX(a) VHH polypeptide derivative) (bispecific antibody, C16 diacid protractor (P2) via linker LP1 on Cys4 and Cys6 in C-term extension (SEQ ID NO:9), Single chain of two VHH: anti-FX (N-terminal) and anti-FIX(a) (C-terminal); also called VHH1.15-L1-2-VHH2.15-E) DVQLVESGGGVVQPGGSLQLSCAASGGTKRRLAMGWFRQAPGQEREWVAAISRRGGSTNYADSVKGRFTISRDNSKNTVYLQMDSLRPEDTALYYCAADDSVGDGYLDYWGQGTLVTVSSGQAPGQEVQLVESGGGVVQPGGSLQLSCAASGRTFNIYTMSWFRQAPGQEREFVAGLRWTDSSTEYADSVKGRFTISRDNSKNTVYLQMDSLRPEDTALYYCAADRSFLFAQALGATKNYEYWGQGTLVTVSSGQACPC

>  <VALUE_REPORTED>
6.9

$$$$
>  <BINDER>
Cmpd #13 (anti-FX/anti-FIX(a) VHH polypeptide derivative) (bispecific antibody, C16 diacid protractor (P2) via linker LP1 on Cys4 and Cys6 in C-term extension (SEQ ID NO: 9), Single chain of two VHH: anti-FX (N-terminal) and anti-FIX(a) (C-terminal); also called VHH1.13-L1-2-VHH2.13-E) DVQLVESGGGVVQPGGSLQLSCAASGGTKRRLAMGWFRQAPGQEREWVAAISRRGGSTNYADSVKGRFTISRDNSKNTVYLDMDDLRPEDTALYYCAADDSVGDGYLDYWGQGTLVTVSSGQAPGQEVQLVESGGGVVQPGGSLQLSCAASGRTFNIYTMSWFRQDPGQEREFVAGLRWTDSSTEYADSVKGRFTISRDNSKNTVYLQMDSLRPEDTALYYCAADRSFLFAQALGATKNYEYWGQGTLVTVSSGQACPC

>  <VALUE_REPORTED>
6.2

$$$$

Incoming: Fill in: KM (nM) of FX activation by 0.1 nM FIXa on phospholipid vesicles with 5 nM compound of Cmpd #19 (anti-FX/anti-FIX(a) VHH polypeptide derivative) (bispecific antibody, C16 diacid protractor (P2) via linker LP1 on Cys4 and Cys6 in C-term extension (SEQ ID NO :9)) DVQLVESGGGVVQPGGSLQLSCAASGGTKSRYAMGWFRQAPGQEREWVAAISRRGGSTNYADSVKGRFTISRDNSKNTVYLQMDSLRPEDTALYYCAADDSVGDGYLDYWGQGTLVTVSSGQAPGQEVQLVESGGGVVQPGGSLQLSCAASGRTFNIYTMSWFRQAPGQEREFVAGLRWTDSSTEYADSVKGRFTISRDNSKNTVYLQMDSLRPEDTALYYCAADRSFLFAQALGATKNYEYWGQGTLVTVSSGQACPC is ___
Outgoing: 8.2

Incoming: Fill in: KM (nM) of FX activation by 0.1 nM FIXa on phospholipid vesicles with 5 nM compound of Cmpd #17 (anti-FX/anti-FIX(a) VHH polypeptide derivative) (bispecific antibody, C16 diacid protractor (P2) via linker LP1 on Cys4 and Cys6 in C-term extension (SEQ ID NO: 9)) DVQLVESGGGVVQPGGSLQLSCAASGGTKSRYAMGWFRQAPGQEREWVAAISRRGGSTNYADSVKGRFTISRDNSKNTVYLDMDDLRPEDTALYYCAADDSVGDGYLDYWGQGTLVTVSSGQAPGQEVQLVESGGGVVQPGGSLQLSCAASGRTFNIYTMSWFRQDPGQEREFVAGLRWTDSSTEYADSVKGRFTISRDNSKNTVYLQMDSLRPEDTALYYCAADRSFLFAQALGATKNYEYWGQGTLVTVSSGQACPC is ___
Outgoing: 9
